# target_desc: BACE1 (Homo sapiens (Human), UniProt P56817)
# Sequence (P56817 46-501): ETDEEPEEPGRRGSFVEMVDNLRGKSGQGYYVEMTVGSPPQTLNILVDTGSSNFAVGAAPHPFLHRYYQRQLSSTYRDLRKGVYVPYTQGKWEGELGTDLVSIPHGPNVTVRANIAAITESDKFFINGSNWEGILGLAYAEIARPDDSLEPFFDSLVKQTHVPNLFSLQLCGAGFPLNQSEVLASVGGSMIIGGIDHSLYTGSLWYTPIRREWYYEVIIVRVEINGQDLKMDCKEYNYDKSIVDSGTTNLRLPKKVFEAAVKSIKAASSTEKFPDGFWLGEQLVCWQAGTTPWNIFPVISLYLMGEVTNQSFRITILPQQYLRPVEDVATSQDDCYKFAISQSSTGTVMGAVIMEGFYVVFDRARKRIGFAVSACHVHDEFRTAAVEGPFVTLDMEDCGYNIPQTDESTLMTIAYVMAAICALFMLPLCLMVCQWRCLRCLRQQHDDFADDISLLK
# assay_procedure: BACE1 AlphaScreen assay (displacement of biotinylated BACE1 binding site probe)
# experimental_conditions: read-out: BACE1 AS IC50
pIC50: −log10 of the molar value.
reported_endpoint: pIC50

compound	pIC50
CC#Cc1cncc(-c2csc([C@]3(C)CC4(CCC(F)(F)CC4)OC(N)=N3)c2)c1	7.59
CC1(c2cc(NC(=O)c3ccc(C#N)cn3)ccc2F)N=C(N)OC2(CCC2)C1(F)F (centres unmarked)	7.87

[P] CC#Cc1cncc(-c2ccc(F)c([C@]3(C)CC4(CCC4)OC(N)=N3)c2)c1
[Q] C[C@@]1(c2cc(NC(=O)c3ccc(F)cn3)ccc2F)CC2(CCC2)OC(N)=N1
For this pair, P and Q , which shows a numerically higher pIC50? Choose, then provide that item's label.
Q

[P] CC#Cc1cncc(-c2csc(C3(C)CC4(CCC(F)(F)CC4)OC(N)=N3)c2)c1 (centres unmarked)
[Q] C[C@@]1(c2cc(NC(=O)c3ccc(Cl)cn3)ccc2F)CC2(CCOCC2)SC(N)=N1
Which of these two has the smaller recorded pIC50: P or Q ? Choose, then provide that item's label.
P
(P: 7.17, Q: 8.01)

[a] C[C@@]1(c2cc(NC(=O)c3ccc(F)cn3)ccc2F)CC2(CCOCC2)SC(N)=N1
[b] CC#Cc1cncc(-c2csc(C3(C)N=C(N)OC4(CCOCC4)C3(F)F)c2)c1 (centres unmarked)
[c] CC#Cc1cncc(-c2cc([C@]3(C)CC4(CCOCC4)OC(N)=N3)sc2C)c1
Rank ascending by pIC50. List each label, following the requested order.
b, c, a
(b: 6.66, c: 7.76, a: 8.17)

---

# target_desc: BACE1 (Homo sapiens (Human), UniProt P56817)
# assay_procedure: BACE1 AlphaScreen assay (displacement of biotinylated BACE1 binding site probe)
# experimental_conditions: read-out: BACE1 AS IC50
# Procedure: BACE1 activity can be assessed in an AlphaScreen® assay. Compounds to be assessed (e.g. compounds as described in the above examples) are serially diluted 1:4 in DMSO, then plated by diluting 10 μL of compound with 40 μl of assay buffer (1×PBS, 0.01% Tween-20, pH 7.0, 0.05% BSA). […] The fluorescent signal is read on a plate reader and the value as a function of compound concentration is used to determine the IC50. Compounds are also assessed for BACE1 and Cathepsin D activity using an FP Assay. […]
reported_endpoint: IC50 (nM)

compound	reported_endpoint	numeric_result
C[C@@]1(c2cc(NC(=O)c3ncc(Cl)cc3F)ccc2F)CC2(CCC2)OC(N)=N1 [Compound 9-131]	IC50	5.7
C[C@@]1(c2cc(NC(=O)c3ccc(Cl)cn3)ccc2F)CC2(CCC2)OC(N)=N1 [Compound 9-129]	IC50	8.3
C[C@@]1(c2cc(NC(=O)c3ccc(C#N)cn3)ccc2F)N=C(N)OC2(CCC2)C1(F)F [Compound 9-163]	IC50	13400
CC1(c2cc(NC(=O)c3ccc(F)cn3)ccc2F)CC2(CCOCC2)SC(N)=N1 (centres unmarked) [Compound 9-147]	IC50	8
C[C@]1(c2cc(NC(=O)c3ccc(C#N)cn3)ccc2F)N=C(N)OC2(CCC2)C1(F)F [Compound 9-162]	IC50	15
C[C@@]1(c2cc(NC(=O)c3ccc(Cl)cn3)ccc2F)CC2(CC2)OC(N)=N1 [Compound 9-154]	IC50	7.5
C[C@]1(c2cc(NC(=O)c3ccc(F)cn3)ccc2F)N=C(N)OC2(CCOCC2)C1(F)F [Compound 9-157]	IC50	45
C[C@@]1(c2cc(/C=C/c3ccc(F)cc3)ccc2F)CC2(CCC2)OC(N)=N1 [Compound 12-177]	IC50	1160
